Taken from patent US20260028391A1.

I'd be grateful if you could share measured RSV Neutralization - IC50 for these entries.
systemTested: fusion glycoprotein of the RSV used in the neutralization assay of Example 1 (respiratory syncytial virus (strain not stated))
assayExplanation: cell-based or functional assay
Give a bare numeral; the unit µg/mL is implied.

Query: Dear colleague, I am looking for the recorded RSV Neutralization - IC50 of the following binder: MPK193 (antibody, V domains shown) VH: EVQLVQSGAEVKKPGESLKISCEASGYSFNNYWIGWVRQMPGKGLEWMGIIYPFDSDTKYSPSFQGHVTISADKSINTAYLQWSSLKASDTAMYFCARFTFGIVLVAGDVTGEGHAFDVWGRGTMVTVTS VL: EIVMMQSPVTLSVSPGGRATLSCRASQSVAGNLAWYQQRPGQAPRLLIYGASTRATGVPARFSGSGSETEFTLTISSLQSEDFAVYYCHHYSNWPQAFGQGTRLDIK
Reply: 0.001

Query: Dear colleague, I am looking for the recorded RSV Neutralization - IC50 of the following binder: MPK173 (antibody, V domains shown) VH: QVQLVQSGAEVRKPGASVKVSCRASGYTFSNFGITWVRQAPGQGLEWMGWISAYNGNTKSAQKFQDRVTMTTDTTTSTAYMELRSLRSDDTAVYYCARDTPSSDGAALLDYWGQGTLVTVSS VL: DIVMTQTPLSLPVTLGQPASISCRSSQSLVYSDGNTYLSWFQQRPGQSPRRLIYKVSNRDSGVPDRFSGSGSGTYFTLKINRVEAEDVGVYYCMQSKYWLTFGQGTKVEIK
Reply: 0.0102

Query: Dear colleague, I am looking for the recorded RSV Neutralization - IC50 of the following binder: MPK179-v4 (antibody, V domains shown) VH: QVQLVQSRAEVKKPGESLKISCRASGYSFINYWIGWVRQMPGKGLEWMGIIYPFDSDTKYSPSFEGHVTISADKSINTAYVQWSSLKASDTAIYYCARFTFGIALVAGDVGGEGHAFDIWGQGTLVTVSS VL: DIVMTQSPSSLSASVGDRVTITCRASQTISTYLNWYQQKPGKAPKLLIYAASRLQSGVPSRFSGSGSGTDFTLTISSLQPEDFATYFCQQSYNAPPFTFGPGTKVDIR
Reply: 0.0066

Query: Dear colleague, I am looking for the recorded RSV Neutralization - IC50 of the following binder: MPK153 (antibody, V domains shown) VH: EVHLVESGGGLVKPGGSLRLSCAASGFTFTGYFMIWIRQAPGKGLEWISYISSSSNYINYADSVKGRFTISRDNGQNTLYLQMNSLRPDDTAVYYCATEQVPSPGPFDLWGQGTLVTVSS VL: QSVLTQPPSVSGAPGQRVIISCTGTSSNIGAGYDVHWYQQFPGASPKLLIFRNTDRPSGVPDRFSGSKSGSSASLAIAGLQAEDEADYYCQSYDRSLDGWVFGGGTKVTVL
Reply: 0.0296

Query: Dear colleague, I am looking for the recorded RSV Neutralization - IC50 of the following binder: MPK197 (antibody, V domains shown) VH: QVQLVQSGAEVKKPGASVKVSCKTSGYYFNDYFIHWVRHAPGQGLEWMGWVNPLSGATVYAQKFQGWVTLTRDTSINTAYMELTRLTSNDTALYYCATGALFWTGPTYWGQGTPVTVSA VL: EIVMMQSPATLSLSPGERATLSCRASQSISNNLAWYQQKTGQAPRLLIYDASSRASGTPGRFSASGSGTDFTLTVSSLETEDFAIYYCQHRSNWPPGITFGPGTRVDVR
Reply: 0.0147
